system_under_test: HIV Env, isolate Ce1172_H1 (HIV)
procedure_details: cell-based or functional assay
observed_property: IC80 (µg/ml) with constrains (µg/mL)
Numbers only, in µg/mL.

Here's what some known entries look like.
ePGDM5 (antibody, V domains shown) VH: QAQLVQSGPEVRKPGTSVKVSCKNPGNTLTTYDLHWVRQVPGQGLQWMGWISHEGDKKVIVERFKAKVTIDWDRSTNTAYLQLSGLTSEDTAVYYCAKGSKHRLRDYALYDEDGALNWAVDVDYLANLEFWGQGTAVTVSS VL: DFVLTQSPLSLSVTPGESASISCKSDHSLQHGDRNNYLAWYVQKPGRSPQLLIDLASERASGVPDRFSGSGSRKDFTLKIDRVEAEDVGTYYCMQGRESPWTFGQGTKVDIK :: 0.065
ePGDM9 (antibody, V domains shown) VH: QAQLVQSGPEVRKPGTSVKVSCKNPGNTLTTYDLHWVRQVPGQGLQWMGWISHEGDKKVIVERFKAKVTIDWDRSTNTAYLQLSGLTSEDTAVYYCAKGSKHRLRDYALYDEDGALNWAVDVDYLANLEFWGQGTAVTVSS VL: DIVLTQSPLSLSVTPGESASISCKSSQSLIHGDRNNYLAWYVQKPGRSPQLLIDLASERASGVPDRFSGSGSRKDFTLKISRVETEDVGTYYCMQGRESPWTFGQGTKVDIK :: 0.108
ePGDM13 (antibody, V domains shown) VH: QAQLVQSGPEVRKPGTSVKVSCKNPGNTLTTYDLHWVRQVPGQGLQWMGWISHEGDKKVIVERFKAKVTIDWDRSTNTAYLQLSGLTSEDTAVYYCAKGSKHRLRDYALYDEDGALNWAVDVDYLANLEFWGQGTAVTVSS VL: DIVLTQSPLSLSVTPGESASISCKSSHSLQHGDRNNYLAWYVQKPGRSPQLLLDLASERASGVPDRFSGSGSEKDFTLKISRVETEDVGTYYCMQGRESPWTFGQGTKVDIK :: 0.242

Would you kindly look at the next entry?
**Q:** Which IC80 (µg/ml) with constrains is listed for PGDM1400 (antibody, V domains shown) VH: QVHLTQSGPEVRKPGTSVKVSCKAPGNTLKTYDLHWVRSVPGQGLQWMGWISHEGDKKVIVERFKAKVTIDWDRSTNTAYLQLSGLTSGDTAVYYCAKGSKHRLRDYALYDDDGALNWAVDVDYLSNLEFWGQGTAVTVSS VL: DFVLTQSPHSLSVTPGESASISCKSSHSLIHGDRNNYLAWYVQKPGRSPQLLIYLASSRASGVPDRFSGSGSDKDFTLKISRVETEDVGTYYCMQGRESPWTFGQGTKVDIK ?
**A:** 0.872

The values you see were collected from patent US20230134571A1.
